# Target Or System: K-Ras G12C (Homo sapiens (Human), UniProt P01116+P62937, G12C)
# Sequence (P01116-2 other isoform, or with tags, fused parts or gaps G12C): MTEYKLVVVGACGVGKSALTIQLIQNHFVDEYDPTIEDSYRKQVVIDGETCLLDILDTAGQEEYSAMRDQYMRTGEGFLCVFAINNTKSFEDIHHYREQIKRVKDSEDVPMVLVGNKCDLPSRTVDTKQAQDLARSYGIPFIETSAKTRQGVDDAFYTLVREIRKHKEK
# Sequence (P62937 whole entry): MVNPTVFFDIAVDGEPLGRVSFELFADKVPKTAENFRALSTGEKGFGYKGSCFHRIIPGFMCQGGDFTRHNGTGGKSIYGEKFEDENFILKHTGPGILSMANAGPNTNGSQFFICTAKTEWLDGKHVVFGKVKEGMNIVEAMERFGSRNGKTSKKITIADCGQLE
# Procedure Text: Ras-Raf (BRAF RBD) disruption / FRET / MOA assay, KRAS G12C
# Format: biochemical
# Protocol Conditions: KRAS G12C; Ras-Raf disruption/FRET/MOA assay; read-out: IC50* KRAS G12C FRET data
# Procedure: The purpose of this biochemical assay is to measure the ability of test compounds to facilitate ternary complex formation between a nucleotide-loaded Ras isoform and cyclophilin A; the resulting ternary complex disrupts binding to a BRAF^RBD construct, inhibiting Ras signaling through a RAF effector. Compound is present in plate wells as a 10-point 3-fold dilution series starting at a final concentration of 30 μM. […]
Please go through the items and note down their IC50.

Solved entries (count: 3):
molecule="CCn1c(-c2cccnc2[C@H](C)OC)c2c3cc(ccc31)-c1cc(O)cc(c1)C[C@H](NC(=O)[C@H](C(C)C)N1CC[C@]3(CCN(C(=O)/C=C/CN(C)C)C3)C1=O)C(=O)N1CCC[C@H](N1)C(=O)OCC(C)(C)C2 (atropisomer, axis not shown) [Example A268]" readout_type=IC50 readout_value="< 10 nM"
molecule="C=CC(=O)N1CC[C@H](C(=O)N(C)[C@H](C(=O)N[C@H]2Cc3cc(O)cc(c3)-c3ccc4c(c3)c(c(-c3cnccc3[C@H](C)OC)n4CC)CC(C)(C)COC(=O)[C@@H]3CCCN(N3)C2=O)C(C)C)C1 [Example A112]" readout_type=IC50 readout_value="100 to 1000 nM"
molecule="CCn1c(-c2cccnc2[C@H](C)OC)c2c3cc(ccc31)-c1csc(n1)C[C@H](NC(=O)CN1CC[C@@]3(CCN(C(=O)C#CC(C)(C)N4CCC4)C3)C1)C(=O)N1CCC[C@H](N1)C(=O)OCC(C)(C)C2 (atropisomer, axis not shown) [Example A364]" readout_type=IC50 readout_value="100 to 1000 nM"

Now, please, on to the next molecule.
Task: Could you tell me which IC50 is on file for C=CC(=O)N1CC[C@H](C(=O)N(C)[C@H](C(=O)N[C@H]2Cc3cc(O)cc(c3)-c3ccc4c(c3)c(c(-c3cnn5c3[C@@H](OC)CCC5)n4CC)CC(C)(C)COC(=O)[C@@H]3CCCN(N3)C2=O)C(C)C)C1 [Example A300] ?
Output: < 10 nM

src = patent US11566007B2
